Cited source for all entries: patent US8492328B2

system: CTR; experiment: In vitro cellular proliferation assay ([3H]-thymidine incorporation); type: cell-based, human; conditions: Homo sapiens; CTR (Rhabdomyosarcoma), 72 hours with drug; read-out: IC50

- mol: "Cc1cc(N2CCOCC2)cc2[nH]c(-c3c(NC[C@@H](O)c4cccc(Cl)c4)cc[nH]c3=O)nc12"
  IC50 (nM): 370

---

tested on: TC71; assay: In vitro cellular proliferation assay ([3H]-thymidine incorporation); format: cell-based, human; conditions: Homo sapiens, TC-71; TC71 (Ewing), 72 hours with drug; read-out: IC50

- molecule: "Cc1cc(N2CCOCC2)cc2[nH]c(-c3c(NC[C@@H](O)c4cccc(Cl)c4)cc[nH]c3=O)nc12 [Compound 1]"
  quantityUnit: "nM"
  IC50: 119

---

test system: H513; experiment: In vitro cellular proliferation assay ([3H]-thymidine incorporation); format: cell-based, human; details: Homo sapiens, H513, 72 h
pIC50: −log10 of the molar value.
measurementKind: pIC50

- mol: "C[C@@]1(C(=O)Nc2ccc(F)nc2)CCCN1c1nc(Nc2cc(C3CC3)[nH]n2)c2cccn2n1"
  measurementKind: "pIC50"
  quantitativeResult: 5.35

---

tested on: RD-1 cells; assay: In vitro cellular proliferation assay, parental sensitive RD-1; assay type: cell-based; settings: Homo sapiens, RD1; sensitive parental RD-1 (RMS) cells
pIC50: −log10 of the molar value.

- mol: "Cc1cc(N2CCOCC2)cc2[nH]c(-c3c(NC[C@@H](O)c4cccc(Cl)c4)cc[nH]c3=O)nc12"
  measuredOn: "RD-1 cells"
  pIC50: 6.62

---

tested on: Rh4; assay: In vitro cellular proliferation assay ([3H]-thymidine incorporation); format: cell-based, human; conditions: Homo sapiens; Rh4 (Rhabdomyosarcoma), 72 hours with drug; read-out: IC50
pIC50: −log10 of the molar value.

- mol: "Cc1cc(N2CCOCC2)cc2[nH]c(-c3c(NC[C@@H](O)c4cccc(Cl)c4)cc[nH]c3=O)nc12"
  measuredOn: "Rh4"
  pIC50: 7.57

---

system: IMR-32; experiment: In vitro cellular proliferation assay ([3H]-thymidine incorporation); format: cell-based, human; conditions: Homo sapiens, IMR-32, 72 h
measurementKind: IC50

- mol: "C[C@@]1(C(=O)Nc2ccc(F)nc2)CCCN1c1nc(Nc2cc(C3CC3)[nH]n2)c2cccn2n1"
  result: "261 nM"

---

Tested on: JD
Test: In vitro cellular proliferation assay ([3H]-thymidine incorporation)
Format: cell-based, human
Conditions: Homo sapiens; JD (Ewing), 72 hours with drug; read-out: IC50
Experimental: All pediatric sarcoma and neuroblastoma cell lines were obtained from Dr. Lee Helman at NIH. […] Cells were plated at an optimized density for each cell line per well in 96-well microtiter Falcon plates, incubated overnight, and then exposed to a serial dilution of drug. […] The mean IC50 and standard deviation (SD) from multiple tests for each cell line were calculated.

- molecule: "Cc1cc(N2CCOCC2)cc2[nH]c(-c3c(NC[C@@H](O)c4cccc(Cl)c4)cc[nH]c3=O)nc12 [Compound 1]"
  IC50, nM: 232
